PROTOCOL TEXT: basal RPMI8226 viability, no added stimulus, profiling panel, cell-based, calcein-AM fluorescence, 48 h, PK04 Diversity Set (AID 1166);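 note: cells grown under basal conditions without added stimulus; test concentration not given here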
TEST SETTINGS: RPMI8226 myeloma viability, higher = more signal
MEASURED QUANTITY: z-score

[
  {
    "MOLECULE": "COC(=O)C1=CC(CCCO)=CC(C2CC2)N(Cc2cc3c(cc2Br)OCO3)C=C1C(=O)OC (configuration not stated)",
    "OBSERVED RESULT": 0.627
  },
  {
    "MOLECULE": "CO[C@H]1O[C@H](CO)[C@@H](OC(=O)Nc2ccccc2)[C@H](OC(=O)Nc2ccc3c(c2)OCO3)[C@H]1OC(=O)Nc1ccc2c(c1)OCO2",
    "OBSERVED RESULT": -1.98
  },
  {
    "MOLECULE": "C=C(CCCC)/C(=C/C[C@@H](OC(=O)c1ccncc1)c1ccc(OCCO)cc1)c1cnc2ccccc2c1",
    "OBSERVED RESULT": -0.393
  },
  {
    "MOLECULE": "COc1ccc([Si](C)(C)[C@@H]2[C@@H](CCn3cc([C@H](O)c4ccccc4)nn3)O[C@]3(C(=O)N(C)c4c(Br)cc(C)cc43)[C@H]2C)cc1",
    "OBSERVED RESULT": -4.42
  },
  {
    "MOLECULE": "CCCCC(=C=CC[C@H](O)c1cccc(OCCO)c1)CCO",
    "OBSERVED RESULT": -0.257
  },
  {
    "MOLECULE": "CC(CO)N1C(=O)[C@@H]2C3C(=O)OCCC/C=C\\[C@H]3OC23C=CCN(Cc2ccccc2)C(=O)[C@@H]13 (some centres not stated)",
    "OBSERVED RESULT": -0.172
  },
  {
    "MOLECULE": "CC(C)(C)OC(=O)CC[C@@]1(C(=O)NCc2ccccc2)N=C(c2ccc(OCCCO)cc2)O[C@@H]1c1ccccc1CN=[N+]=[N-]",
    "OBSERVED RESULT": -1.04
  }
]

The measured values listed here are drawn from PubChem BioAssay.
